Ref: the supplement of paper PMC11246515

protocol_summary: total protein half-life in vivo (active degradation + dilution); higher = more stable protein
test_parameters: wild type E. coli NCM3722; growth: N-lim chemostat; doubling time 6 h
measurement_type: total protein half-life in vivo (h)
// note: answer is a bare numeric in h

sequence_code: MFNEVHSIHGHTLLLITKSSLQATALLQHLKQSLAITGKLHNIQRSLDDISSGSIILLDMMEADKKLIHYWQDTLSRKNNNIKILLLNTPEDYPYRDIENWPHINGVFYSMEDQERVVNGLQGVLRGECYFTQKLASYLITHSGNYRYNSTESALLTHREKEILNKLRIGASNNEIARSLFISENTVKTHLYNLFKKIAVKNRTQAVSWANDNLRR
display_unit: h
total protein half-life in vivo: 0.875

sequence_code: MKKYLALALIAPLLISCSTTKKGDTYNEAWVKDTNGFDILMGQFAHNIENIWGFKEVVIAGPKDYVKYTDQYQTRSHINFDDGTITIETIAGTEPAAHLRRAIIKTLLMGDDPSSVDLYSDVDDITISKEPFLYGQVVDNTGQPIRWEGRASNFADYLLKNRLKSRSNGLRIIYSVTINMVPNHLDKRAHKYLGMVRQASRKYGVDESLILAIMQTESSFNPYAVSRSDALGLMQVVQHTAGKDVFRSQGKSGTPSRSFLFDPASNIDTGTAYLAMLNNVYLGGIDNPTSRRYAVITAYNGGAGSVLRVFSNDKIQAANIINTMTPGDVYQTLTTRHPSAESRRYLYKVNTAQKSYRRR [P0C066]
display_unit: h
total protein half-life in vivo: 6.34

// next entry
Name the reported total protein half-life in vivo value associated with the sequence MTMYATLEEAIDAAREEFLADNPGIDAEDANVQQFNAQKYVLQDGDIMWQVEFFADEGEEGECLPMLSGEAAQSVFDGDYDEIEIRQEWQEENTLHEWDEGEFQLEPPLDTEEGRAAADEWDER
3.33

###

protocol_summary: total protein half-life in vivo (active degradation + dilution); higher = more stable protein
test_parameters: wild type E. coli NCM3722; growth: C-lim chemostat; doubling time 12 h
measurement_type: total protein half-life in vivo (h)
Only the number, expressed in h, is required.

See these solved cases before continuing.
sequence_code: MVSRRVQALLDQLRAQGIQDEQVLNALAAVPREKFVDEAFEQKAWDNIALPIGQGQTISQPYMVARMTELLELTPQSRVLEIGTGSGYQTAILAHLVQHVCSVERIKGLQWQARRRLKNLDLHNVSTRHGDGWQGWQARAPFDAIIVTAAPPEIPTALMTQLDEGGILVLPVGEEHQYLKRVRRRGGEFIIDTVEAVRFVPLVKGELA [P0A7A5]
display_unit: h
total protein half-life in vivo: 8.88
--
sequence_code: MFNSDNLRLDGKCAIITGAGAGIGKEIAITFATAGASVVVSDINADAANHVVDEIQQLGGQAFACRCDITSEQELSALADFAISKLGKVDILVNNAGGGGPKPFDMPMADFRRAYELNVFSFFHLSQLVAPEMEKNGGGVILTITSMAAENKNINMTSYASSKAAASHLVRNMAFDLGEKNIRVNGIAPGAILTDALKSVITPEIEQKMLQHTPIRRLGQPQDIANAALFLCSPAASWVSGQILTVSGGGVQELN [P0AET8]
display_unit: h
total protein half-life in vivo: 10.2

Switching to the query record.
Data request, read-out total protein half-life in vivo, for MSFSVQETLFSLLQHNAISGHENAVADVMLCEFRRQAKEVWRDRLGNVVARYGSDKPDALRLMIFAHMDEVGFMVRKIEPSGFLRFERVGGPAQVTMAGSIVTLTGDKGPVMGCIGIKSYHFAKGDERTQSPSVDKLWIDIGAKDKDDAIRMGIQVGTPVTLYNPPQLLANDLVCSKALDDRLGCTALLGVADAISTMELDIAVYLVASVQEEFNIRGIVPVLRRVKPDLAIGIDITPSCDTPDLHDYSEVRINQGVGITCLNYHGRGTLAGLITPPRLIRMLEQTALEHNIPVQREVAPGVITETGYIQVEQDGIPCASLSIPCRYTHSPAEVASLRDLTDCIRLLTALAGMSAAHFPVEPDSGTTQEAHPL
10.9

###

protocol_summary: total protein half-life in vivo (active degradation + dilution); higher = more stable protein
test_parameters: wild type E. coli NCM3722; growth: P-lim chemostat; doubling time 6 h
Recorded total protein half-life in vivo, one value per entry.
Just the number please, in h, no unit attached.

Field request: total protein half-life in vivo | item: MRLLPLVAAATAAFLVVACSSPTPPRGVTVVNNFDAKRYLGTWYEIARFDHRFERGLEKVTATYSLRDDGGLNVINKGYNPDRGMWQQSEGKAYFTGAPTRAALKVSFFGPFYGGYNVIALDREYRHALVCGPDRDYLWILSRTPTISDEVKQEMLAVATREGFDVSKFIWVQQPGS [P0A901]
5.43

Moving on to the next sequence: MQSWYLLYCKRGQLQRAQEHLERQAVNCLAPMITLEKIVRGKRTAVSEPLFPNYLFVEFDPEVIHTTTINATRGVSHFVRFGASPAIVPSAVIHQLSVYKPKDIVDPATPYPGDKVIITEGAFEGFQAIFTEPDGEARSMLLLNLINKEIKHSVKNTEFRKL [P0AFW0]
4.35

Same thing, different sequence: MWLLDQWAERHIAEAQAKGEFDNLAGSGEPLILDDDSHVPPELRAGYRLLKNAGCLPPELEQRREAIQLLDILKGIRHDDPQYQEVSRRLSLLELKLRQAGLSTDFLRGDYADKLLDKINDN
6.15

Now the same for MKKKTTLSEEDQALFRQLMAGTRKIKQDTIVHRPQRKKISEVPVKRLIQEQADASHYFSDEFQPLLNTEGPVKYVRPDVSHFEAKKLRRGDYSPELFLDLHGLTQLQAKQELGALIAACRREHVFCACVMHGHGKHILKQQTPLWLAQHPHVMAFHQAPKEYGGDAALLVLIEVEEWLPPELP [P0A8B2]
3.06

###

Each entry below carries its recorded total protein half-life in vivo.
protocol_summary: total protein half-life in vivo (active degradation + dilution); higher = more stable protein
test_parameters: wild type E. coli NCM3722; growth: C-lim chemostat; doubling time 12 h
Provide the reading as a plain figure in h.

Return reported total protein half-life in vivo; argument: MSLFHLIAPSGYCIKQHAALRGIQRLTDAGHQVNNVEVIARRCERFAGTETERLEDLNSLARLTTPNTIVLAVRGGYGASRLLADIDWQALVARQQHDPLLICGHSDFTAIQCGLLAHGNVITFSGPMLVANFGADELNAFTEHHFWLALRNETFTIEWQGEGPTCRAEGTLWGGNLAMLISLIGTPWMPKIENGILVLEDINEHPFRVERMLLQLYHAGILPRQKAIILGSFSGSTPNDYDAGYNLESVYAFLRSRLSIPLITGLDFGHEQRTVTLPLGAHAILNNTREGTQLTISGHPVLKM
9.85

Quick one: MRNKPFYLLCAFLWLAVSHALAADSTITIRGYVRDNGCSVAAESTNFTVDLMENAAKQFNNIGATTPVVPFRILLSPCGNAVSAVKVGFTGVADSHNANLLALENTVSAASGLGIQLLNEQQNQIPLNAPSSALSWTTLTPGKPNTLNFYARLMATQVPVTAGHINATATFTLEYQ
15.7

What about this sequence? MVAPIPAKRGRKPAVATAPATGQVQSLTRGLKLLEWIAESNGSVALTELAQQAGLPNSTTHRLLTTMQQQGFVRQVGELGHWAIGAHAFMVGSSFLQSRNLLAIVHPILRNLMEESGETVNMAVLDQSDHEAIIIDQVQCTHLMRMSAPIGGKLPMHASGAGKAFLAQLSEEQVTKLLHRKGLHAYTHATLVSPVHLKEDLAQTRKRGYSFDDEEHALGLRCLAACIFDEHREPFAAISISGPISRITDDRVTEFGAMVIKAAKEVTLAYGGMR
9.91

Also MATDSTQCVKKSRGRPKVFDRDAALDKAMKLFWQHGYEATSLADLVEATGAKAPTLYAEFTNKEGLFRAVLDRYIDRFAAKHEAQLFCEEKSVESALADYFAAIANCFTSKDTPAGCFMINNCTTLSPDSGDIANTLKSRHAMQERTLQQFLCQRQARGEIPPHCDVTHLAEFLNCIIQGMSISAREGASLEKLMQIAGTTLRLWPELVK , if possible.
4.6

Thanks! And MRTISYSEARQNLSATMMKAVEDHAPILITRQNGEACVLMSLEEYNSLEETAYLLRSPANARRLMDSIDSLKSGKGTEKDIIE ?
2.2

Same again, this time with MSEIKDVIVQGLWKNNSALVQLLGLCPLLAVTSTATNALGLGLATTLVLTLTNLTISTLRHWTPAEIRIPIYVMIIASVVSAVQMLINAYAFGLYQSLGIFIPLIVTNCIVVGRAEAFAAKKGPALSALDGFSIGMGATCAMFVLGSLREIIGNGTLFDGADALLGSWAKVLRVEIFHTDSPFLLAMLPPGAFIGLGLMLAGKYLIDERMKKRRAEAAAERALPNGETGNV
5.17

Next up: MQIIFGEKCVSLLRLFFAAVLMLWCAQTAAYSGQCHTTQGNPYIGVNFGVKTLEEEANTAGVVKDKFYQWNESNDYYVSCDCDKDNVRSGRWAFAADSPLVYLGDNWYKINDYLAAKVLLQVKGSSPTAVPFENVGTGGDTRWHICDPGGQRLGGQGASGNSGSFSLKILQPFVGSVVIPPMALARLYECYNIPAGDSCTTTGTPVLVYYLSGTINSLGSCSVNAGETIEVDLGDVFAANFRVVGHKPLGARTAELAIPVRCNTGNAGLVNVNLSLTATTDPSYPQAIKTSRPGVGVVVTDSQNNIISPAGGTLPLSIPDDADSIARMNVYPVSTTGVPPETGRFEATATVRINFD
9.76

Repeat with MTKLKLLALGVLIATSAGVAHAEGKFSLGAGVGVVEHPYKDYDTDVYPVPVINYEGDNFWFRGLGGGYYLWNDATDKLSITAYWSPLYFKAKDSGDHQMRHLDDRKSTMMAGLSYAHFTQYGYLRTTLAGDTLDNSNGIVWDMAWLYRYTNGGLTVTPGIGVQWNSENQNEYYYGVSRKESARSGLRGYNPNDSWSPYLELSASYNFLGDWSVYGTARYTRLSDEVTDSPMVDKSWTGLISTGITYKF [P0A908]
13.6

Input MSLVTDLPAIFDQFSEARQTGFLTVMDLKERGIPLVGTYCTFMPQEIPMAAGAVVVSLCSTSDETIEEAEKDLPRNLCPLIKSSYGFGKTDKCPYFYFSDLVVGETTCDGKKKMYEYMAEFKPVHVMQLPNSVKDDASRALWKAEMLRLQKTVEERFGHEISEDALRDAIALKNRERRALANFYHLGQLNPPALSGSDILKVVYGATFRFDKEALINELDAMTARVRQQWEEGQRLDPRPRILITGCPIGGAAEKVVRAIEENGGWVVGYENCTGAKATEQCVAETGDVYDALADKYLAIGCSCVSPNDQRLKMLSQMVEEYQVDGVVDVILQACHTYAVESLAIKRHVRQQHNIPYIAIETDYSTSDVGQLSTRVAAFIEML
2.51

Please give the result for MKYRIALAVSLFALSAGSYATTLCQEKEQNILKEISYAEKHQNQNRIDGLNKALSEVRANCSDSQLRADHQKKIAKQKDEVAERQQDLAEAKQKGDADKIAKRERKLAEAQEELKKLEARDY too.
7.58

Then MLEILYQDEWLVAVNKPSGWLVHRSWLDRDEKVVVMQTVRDQIGQHVFTAHRLDRPTSGVLLMGLSSEAGRLLAQQFEQHQIQKRYHAIVRGWLMEEAVLDYPLVEELDKIADKFAREDKGPQPAVTHYRGLATVEMPVATGRYPTTRYGLVELEPKTGRKHQLRRHLAHLRHPIIGDSKHGDLRQNRSGAEHFGLQRLMLHASQLSLTHPFTGEPLTIHAGLDDTWMQALSQFGWRGLLPENERVEFSAPSGQDGEISS [P0AA41] ?
11.8

Cool, now MIEWQDLHHSELSVSQLYALLQLRCAVFVVEQNCPYQDIDGDDLTGDNRHILGWKNDELVAYARILKSDDDLEPVVIGRVIVSEALRGEKVGQQLMSKTLETCTHHWPDKPVYLGAQAHLQNFYQSFGFIPVTEVYEEDGIPHIGMAREVIQA [P0AEH3]
7.04
